- measured_target: PRMT5/MEP50 (Homo sapiens, UniProt O14744)
- Construct: Expressed full-length human Flag-PRMT5/6His-MeP50 protein complex was purified; made in house; host or cells: Spodoptera frugiperda (SF9) insect cells, baculovirus (pDEST8)
- Sequence (O14744 with tags, fused parts or gaps): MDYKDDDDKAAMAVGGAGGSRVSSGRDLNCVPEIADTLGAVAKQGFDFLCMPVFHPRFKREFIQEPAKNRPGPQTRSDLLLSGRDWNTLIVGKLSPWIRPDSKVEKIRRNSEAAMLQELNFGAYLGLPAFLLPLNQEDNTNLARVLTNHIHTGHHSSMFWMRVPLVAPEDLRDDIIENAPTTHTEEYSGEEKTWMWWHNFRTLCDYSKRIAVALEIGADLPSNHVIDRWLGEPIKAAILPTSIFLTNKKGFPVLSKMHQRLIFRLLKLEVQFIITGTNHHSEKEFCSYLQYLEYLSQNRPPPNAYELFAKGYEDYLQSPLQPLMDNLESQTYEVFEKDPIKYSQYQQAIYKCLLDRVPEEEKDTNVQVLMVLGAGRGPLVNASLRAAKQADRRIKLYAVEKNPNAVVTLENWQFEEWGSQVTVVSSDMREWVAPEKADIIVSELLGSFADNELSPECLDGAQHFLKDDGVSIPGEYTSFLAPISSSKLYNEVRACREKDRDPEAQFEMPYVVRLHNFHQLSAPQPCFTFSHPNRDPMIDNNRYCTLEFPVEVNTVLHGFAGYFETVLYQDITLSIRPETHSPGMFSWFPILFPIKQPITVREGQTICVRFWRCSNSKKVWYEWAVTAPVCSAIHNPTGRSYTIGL
- Sequence (Q9BQA1 with tags, fused parts or gaps partner limits assumed): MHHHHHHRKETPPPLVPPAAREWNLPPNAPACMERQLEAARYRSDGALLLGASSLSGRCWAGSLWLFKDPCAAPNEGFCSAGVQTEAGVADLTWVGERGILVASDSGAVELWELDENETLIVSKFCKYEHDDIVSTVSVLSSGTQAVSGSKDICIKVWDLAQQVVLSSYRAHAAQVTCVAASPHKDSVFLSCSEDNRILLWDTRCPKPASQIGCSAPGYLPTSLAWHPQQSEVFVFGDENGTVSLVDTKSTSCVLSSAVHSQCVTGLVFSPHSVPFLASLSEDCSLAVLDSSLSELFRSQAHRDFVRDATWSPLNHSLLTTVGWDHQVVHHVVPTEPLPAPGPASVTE
- test_protocol: PRMT5 Biochemical Assay (PRMT5/MEP50 enzyme assay on peptide substrate, 3H-SAM Flashplate)
- run_parameters: Table A-2; PRMT5/MEP50 4 nM, 3H-SAM 75 nM, peptide 40 nM; read-out: Biochemical IC50
- Source text: S-adenosylmethionine (SAM), S-adenosylhomocysteine (SAH), bicine, KCl, Tween20, dimethylsulfoxide (DMSO), bovine skin gelatin (BSG), and Tris(2-carboxyethyl)phosphine hydrochloride solution (TCEP) were purchased from Sigma-Aldrich at the highest level of purity possible. ^3H-SAM was purchase from American Radiolabeled Chemicals with a specific activity of 80 Ci/mmol 384-well streptavidin Flashplates were purchased from PerkinElmer. […]
pIC50: −log10 of the molar value.
metric_name: pIC50

CN(C)CCOc1ccccc1OCC(=O)NC[C@@H](O)CN1CCc2ccccc2C1 [Compound A89] on PRMT5/MEP50 (Homo sapiens, UniProt O14744) gives pIC50 = 6.00 to 7.00

Record CS(=O)(=O)c1cccc(OCC(=O)NCC(O)CN2CCc3ccccc3C2)c1 (centres unmarked) [Compound A47] / PRMT5/MEP50 (Homo sapiens, UniProt O14744), pIC50 recorded as > 7.00

Field pIC50 (PRMT5/MEP50 (Homo sapiens, UniProt O14744)), entry O=C(Cc1ccccc1)NC[C@H](O)CN1CCc2ccccc2C1 [Compound A55] : 6.00 to 7.00

Value sought: pIC50, system PRMT5/MEP50 (Homo sapiens, UniProt O14744), item O=C(COc1ccccc1S(=O)(=O)N1CCC(O)C1)NCC(O)CN1CCc2ccccc2C1 (centres unmarked) [Compound A111] . Result: > 7.00

Known value: PRMT5/MEP50 (Homo sapiens, UniProt O14744) pIC50 of the compound O=C(COc1ccc(F)cc1)NCC(O)CN1CCc2ccccc2C1 (centres unmarked) [Compound A10] equals 5.00 to 6.00

I looked up O=C(COc1ccccc1)NCC(O)CN1CCc2ccccc2C1 (centres unmarked) [Compound A1] and its pIC50 for PRMT5/MEP50 (Homo sapiens, UniProt O14744) was 6.00 to 7.00

The compound NC(=O)c1ccc(OCC(=O)NCC(O)CN2CCc3ccccc3C2)cc1 (centres unmarked) [Compound A13] , tested on PRMT5/MEP50 (Homo sapiens, UniProt O14744), showed pIC50 of 5.00 to 6.00

Value sought: pIC50, system PRMT5/MEP50 (Homo sapiens, UniProt O14744), item CS(=O)(=O)N1CCc2c(cccc2OCC(=O)NCC(O)CN2CCc3ccccc3C2)C1 (centres unmarked) [Compound A102] . Result: > 7.00

CN(CC(O)CN1CCc2ccccc2C1)C(=O)COc1ccccc1 (centres unmarked) [Compound A5] on PRMT5/MEP50 (Homo sapiens, UniProt O14744) gives pIC50 = 4.30 to 5.00

Given the compound O=C(COC1CCOCC1)NCC(O)CN1CCc2ccccc2C1 (centres unmarked) [Compound A41] and test system PRMT5/MEP50 (Homo sapiens, UniProt O14744), the measured pIC50 is 5.00 to 6.00

Tested system PRMT5/MEP50 (Homo sapiens, UniProt O14744); pIC50 recorded for CC(C)(Oc1ccccc1)C(=O)NCC(O)CN1CCc2ccccc2C1 (centres unmarked) [Compound A25] was 6.00 to 7.00

# value of pIC50, PRMT5/MEP50 (Homo sapiens, UniProt O14744), item CN1CCN(c2ccccc2OCC(=O)NC[C@H](O)CN2CCc3ccccc3C2)CC1 [Compound A84] = > 7.00

Value sought: pIC50, system PRMT5/MEP50 (Homo sapiens, UniProt O14744), item O=C(COc1ccccc1C1CCCCC1)NCC(O)CN1CCc2ccccc2C1 (centres unmarked) [Compound A40] . Result: > 7.00

Bench note, PRMT5/MEP50 (Homo sapiens, UniProt O14744): entry CS(=O)(=O)c1ccc(OCC(=O)NCC(O)CN2CCc3ccccc3C2)cc1 (centres unmarked) [Compound A14] , its pIC50 = 5.00 to 6.00

Considering O=C(COc1cccc(NC2CCOCC2)c1)NCC(O)CN1CCc2ccccc2C1 (centres unmarked) [Compound A93] , its pIC50 with PRMT5/MEP50 (Homo sapiens, UniProt O14744) was recorded as > 7.00

Field pIC50 (system: PRMT5/MEP50 (Homo sapiens, UniProt O14744)) for entry CN(C)c1ccc(OCC(=O)NCC(O)CN2CCc3ccccc3C2)cc1 (centres unmarked) [Compound A35] = 6.00 to 7.00

The compound CN1CCC(n2ncc3cc(OCC(=O)NCC(O)CN4CCc5ccccc5C4)ccc32)C1 (centres unmarked) [Compound A96] on PRMT5/MEP50 (Homo sapiens, UniProt O14744): pIC50 was > 7.00

Record CN(C)c1cccnc1OCC(=O)NCC(O)CN1CCc2ccccc2C1 (centres unmarked) [Compound A133] ; system PRMT5/MEP50 (Homo sapiens, UniProt O14744); pIC50 = < 5.00

Entry O=C(COc1ccccc1)NC[C@@H](O)CN1CCc2ccccc2C1 [Compound A33] ; assay system PRMT5/MEP50 (Homo sapiens, UniProt O14744); pIC50 recorded at 5.00 to 6.00

The recorded pIC50 with PRMT5/MEP50 (Homo sapiens, UniProt O14744) for CN(C)c1ccc2cccc(OCC(=O)NC[C@@H](O)CN3CCc4ccccc4C3)c2n1 [Compound A105] was > 7.00

The observed pIC50 for O=C(COc1ccccc1N1CCNCC1)NCC(O)CN1CCc2ccccc2C1 (centres unmarked) [Compound A79] when tested with PRMT5/MEP50 (Homo sapiens, UniProt O14744) stands at > 7.00

Record CN(C)c1cccc(OCC(=O)NCC(O)CN2CCc3ccccc3C2)c1 (centres unmarked) [Compound A27] has PRMT5/MEP50 (Homo sapiens, UniProt O14744) pIC50 equal to > 7.00

// compound O=C(COc1ccccc1-c1cc[nH]n1)NC[C@H](O)CN1CCc2ccccc2C1 [Compound A68] , assay PRMT5/MEP50 (Homo sapiens, UniProt O14744), pIC50 value: > 7.00

// assay PRMT5/MEP50 (Homo sapiens, UniProt O14744), entry O=C(COc1ccccc1)NC[C@H](O)CN1CCc2ccccc2C1 [Compound A32] , pIC50 value = 6.00 to 7.00

GET /values?item= CC(C)(Oc1cccc2cccnc12)C(=O)NCC(O)CN1CCc2ccccc2C1 (centres unmarked) [Compound A43] &system= PRMT5/MEP50 (Homo sapiens, UniProt O14744) returns pIC50: > 7.00

Simply: O=C(CC1CCCCC1)NC[C@@H](O)CN1CCc2ccccc2C1 [Compound A58] , PRMT5/MEP50 (Homo sapiens, UniProt O14744), pIC50 = 4.30 to 5.00

The compound CN(C)C(=O)c1ccccc1OCC(=O)NCC(O)CN1CCc2ccccc2C1 (centres unmarked) [Compound A113] on PRMT5/MEP50 (Homo sapiens, UniProt O14744): pIC50 was 6.00 to 7.00

The compound Cc1ccc(OCC(=O)NCC(O)CN2CCc3ccccc3C2)cc1 (centres unmarked) [Compound A9] on PRMT5/MEP50 (Homo sapiens, UniProt O14744): pIC50 was 6.00 to 7.00

Tested on PRMT5/MEP50 (Homo sapiens, UniProt O14744): CN(C)S(=O)(=O)c1ccccc1OCC(=O)NCC(O)CN1CCc2ccccc2C1 (centres unmarked) [Compound A109] . Observed pIC50: > 7.00

GET /values?item= O=C(COCc1cccnc1)NCC(O)CN1CCc2ccccc2C1 (centres unmarked) [Compound A152] &system= PRMT5/MEP50 (Homo sapiens, UniProt O14744) returns pIC50: 5.00 to 6.00

The compound CN(C)CCOc1ccccc1OCC(=O)NC[C@H](O)CN1CCc2ccccc2C1 [Compound A88] , tested on PRMT5/MEP50 (Homo sapiens, UniProt O14744), showed pIC50 of > 7.00

# CC(=O)N1CCN(c2ccccc2OCC(=O)NCC(O)CN2CCc3ccccc3C2)CC1 (centres unmarked) [Compound A90] with PRMT5/MEP50 (Homo sapiens, UniProt O14744): pIC50 is > 7.00

Field pIC50 (PRMT5/MEP50 (Homo sapiens, UniProt O14744)), entry CN(C)c1cncc(OCC(=O)NCC(O)CN2CCc3ccccc3C2)c1 (centres unmarked) [Compound A143] : 5.00 to 6.00

Tested on PRMT5/MEP50 (Homo sapiens, UniProt O14744): CC(=O)N1CCN(S(=O)(=O)c2ccccc2OCC(=O)NCC(O)CN2CCc3ccccc3C2)CC1 (centres unmarked) [Compound A122] . Observed pIC50: 6.00 to 7.00

Field pIC50 (system: PRMT5/MEP50 (Homo sapiens, UniProt O14744)) for entry O=C(COc1cccc2ccc(N3CCOCC3)nc12)NCC(O)CN1CCc2ccccc2C1 (centres unmarked) [Compound A48] = > 7.00
